- study-system: UniProt:P49840
- Sequence (P49840 whole entry): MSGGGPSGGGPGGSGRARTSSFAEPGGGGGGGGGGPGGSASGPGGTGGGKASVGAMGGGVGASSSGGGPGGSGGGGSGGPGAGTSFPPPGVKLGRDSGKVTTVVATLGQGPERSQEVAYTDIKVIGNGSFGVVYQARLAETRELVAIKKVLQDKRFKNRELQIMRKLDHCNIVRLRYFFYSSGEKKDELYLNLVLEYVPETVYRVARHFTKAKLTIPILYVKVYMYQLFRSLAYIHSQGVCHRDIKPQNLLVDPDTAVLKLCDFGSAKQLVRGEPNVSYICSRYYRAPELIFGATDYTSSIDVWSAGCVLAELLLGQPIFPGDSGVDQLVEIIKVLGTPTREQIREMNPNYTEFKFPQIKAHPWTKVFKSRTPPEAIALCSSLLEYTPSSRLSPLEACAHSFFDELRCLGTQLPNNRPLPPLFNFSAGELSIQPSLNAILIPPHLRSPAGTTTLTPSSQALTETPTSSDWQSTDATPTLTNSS
- protocol-description: GSK3 alpha biochemical assay (TR-FRET)
pIC50: −log10 of the molar value.
reported-endpoint: pIC50

Some entries whose results are on file:
| molecule | pIC50 |
| --- | --- |
| CCC1(c2ccccc2)C2=C(CC(C)CC2=O)Nc2ncsc21 (centres unmarked) [Compound 6] | 6.71 |
| CCCC1CC(=O)C2=C(C1)Nc1ncsc1C2(CC)c1ccccc1 (centres unmarked) [Compound 9] | 6.74 |
| CCC1(c2ccccc2)C2=C(CCC(C)(C)C2=O)Nc2ncsc21 (centres unmarked) [Compound 3] | 6.60 |

1. CCC1(c2ccccc2)C2=C(CCCC2=O)Nc2ncsc21 (centres unmarked) [Compound 11]
2. CCC1(c2ccccc2)C2=C(CC(CC(C)C)CC2=O)Nc2ncsc21 (centres unmarked) [Compound 10]
INPUT: Lowest pIC50? choose 1 or 2 Let me know the label of the one you choose.
OUTPUT: 1

---

- study-system: UniProt:P49840
- protocol-description: GSK3 alpha biochemical assay (TR-FRET)
reported-endpoint: IC50 (nM)

Some entries whose results are on file:
| molecule | units | measurement |
| --- | --- | --- |
| CCC1(c2ccc(C)cc2)C2=C(CC(C)(C)CC2=O)Nc2ncsc21 (centres unmarked) | nM | 187 |
| CCC1(c2ccccc2)C2=C(Nc3ncsc31)C(C)(C)CCC2=O (centres unmarked) | nM | 174 |

I. CCC1(c2ccccc2)C2=C(Nc3ncsc31)C(C)CC(C)C2=O (centres unmarked)
II. CCC1(c2ccccc2)C2=C(CC(C)(C)CC2=O)Nc2nc(Cl)sc21 (centres unmarked)
III. CCC1(c2ccccc2)C2=C(CC(C(C)C)CC2=O)Nc2ncsc21 (centres unmarked)
INPUT: Arrange the 3 entries by IC50 so the values rise. Rank the items, then write their labels in that order.
OUTPUT: I, III, II

P. CCC1(c2cccc(Br)c2)C2=C(CC(C)(C)CC2=O)Nc2ncsc21 (centres unmarked)
Q. CCC1(c2ccccc2)C2=C(CC3(CCCC3)CC2=O)Nc2ncsc21 (centres unmarked)
R. CCC1CC(=O)C2=C(C1)Nc1ncsc1C2(CC)c1ccccc1 (centres unmarked)
INPUT: Arrange the 3 entries by IC50 so the values rise. Rank the items, then write their labels in that order.
OUTPUT: P, Q, R

---

- protocol-description: Liver microsomal stability, human
- Assay type: in vitro ADME
- condition-details: 1 μM, 60 minutes at 37° C.
- Protocol: Stability of compound in liver microsomes was tested in duplicate by incubating compound at 1 μM for 60 minutes at 37° C. Compound level at 60 minutes was compared to level at 0 minutes, and percent remaining was calculated. Order by selecting Microsomal Stability in Prometheus, checking boxes for desired species. Available species: human, mouse (CD-1), and rat (Sprague-Dawley). Compound requirements: 5 μL of a 10 mM DMSO solution. Incubation time: 60 minutes at 37° C. Test Concentration: 1 μM. […]
reported-endpoint: Human Liver Microsomal Stability, % remaining (%)
Number only, in %; omit the unit.

INPUT: Query (compound): `CC[C@@]1(c2cccc(Cl)c2)C2=C(CC(C)(C)CC2=O)Nc2ncsc21` ; field requested: Human Liver Microsomal Stability, % remaining
OUTPUT: 0.0

---

- study-system: GSK3β (Homo sapiens (Human))
- Sequence (P49841 whole entry): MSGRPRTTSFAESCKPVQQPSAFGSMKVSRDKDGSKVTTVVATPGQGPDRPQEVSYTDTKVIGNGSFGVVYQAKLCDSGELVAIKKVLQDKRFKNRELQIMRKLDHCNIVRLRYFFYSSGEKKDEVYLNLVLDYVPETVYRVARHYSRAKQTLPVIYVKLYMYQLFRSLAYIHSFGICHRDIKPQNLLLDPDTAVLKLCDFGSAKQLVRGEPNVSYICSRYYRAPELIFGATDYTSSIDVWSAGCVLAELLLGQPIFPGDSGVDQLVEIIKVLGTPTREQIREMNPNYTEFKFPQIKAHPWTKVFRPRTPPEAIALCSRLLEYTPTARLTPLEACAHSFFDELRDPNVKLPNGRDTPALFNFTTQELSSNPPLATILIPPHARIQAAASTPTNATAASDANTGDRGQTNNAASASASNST
- protocol-description: Carna kinome panel
- Format: biochemical
- condition-details: GSK3β
reported-endpoint: pIC50
In simple prose, pIC50 is minus the logarithm base ten of a concentration in moles per litre.

INPUT: Query (compound): CCC1(c2ccccc2)C2=C(CC(C)(C)CC2=O)Nc2ncsc21 (stereo not shown) ; field requested: pIC50
OUTPUT: 6.86

Reference source: patent US11203601B2
